assay details: particle size and polydispersity index of drug micelles over time (ZetaSizer)
Format: physicochemical
details: docetaxel:compound 1:3, docetaxel 0.5 mg/mL; time 6 h
Experimental: Micellar size was measured using a ZetaSizer from Malvern Panalytical. A stock solution of docetaxel in methanol was mixed with a stock solution of compound 1 in a round bottom flask. The mixture was evaporated to dryness in a rotary evaporator. Final drying was performed in a desiccator to remove residual solvent. Hydration of the dried film was performed by adding water for injection (1.0 mL) to a concentration of 1 mg/mL of docetaxel. […]
property: Polydispersity index
Keep the answer to the number alone.

Solved cases (2 shown):
smiles notation: COc1cc(C)c(/C=C/C(C)=C/C=C/C(C)=C/C(=O)N2CCC(CCS(=O)(=O)[O-])CC2)c(C)c1C.[Na+]
Polydispersity index: 0.12
//
smiles notation: COc1cc(C)c(/C=C/C(C)=C/C=C/C(C)=C/C(=O)N2CCN(C(=O)c3ccc(S(=O)(=O)[O-])cc3)CC2)c(C)c1C.[K+]
Polydispersity index: 0.17

Query compound follows.
Prompt: Need Polydispersity index of COc1cc(C)c(/C=C/C(C)=C/C=C/C(C)=C/C(=O)N(CCS(=O)(=O)[O-])CC(N)=O)c(C)c1C.[Na+] , thanks.
Response: 0.13
